Tested on: NS-1 (ATCC TIB-18) mouse myeloma cells
Experimental Protocol: Cytotoxicity resazurin assay, NS-1 cells
Type: cell-based
Experimental Context: NS1; mouse myeloma NS-1 ATCC TIB-18, 96 h; read-out: IC50 NS-1
Assay Readout: IC50 (µg/mL)
Your answer is read as µg/mL, so omit the unit and give the number.

(Q) Find the recorded IC50 belonging to CCCCCCCCCCCCCCCc1cc(O)cc(O)c1 [compound 6, adipostatin] and report it.
(A) 6.3

(Q) Another: CCCCCCCCCCCCCCCc1cc(O)cc(O)c1C(=O)O [1f, corticiolic acid]
(A) 25

(Q) Another: CCCCCCCCCCCCCc1cc(O[C@@H]2O[C@H](CO)[C@H](O)[C@H](O)[C@H]2O)cc(O)c1C(=O)OC [3c, Ariestatin C]
(A) 0.2

---

System: B. subtilis (ATCC 6633)
Assay Readout: MIC (µg/mL)
Your answer is read as µg/mL, so omit the unit and give the number.

(Q) Find the recorded MIC belonging to `CCCCCCCCCCCCCCCc1cc(O)cc(O)c1C(=O)O` and report it.
(A) 0.8

(Q) Another: `CCCCCCCCCCCCCc1cc(O[C@@H]2O[C@H](CO)[C@H](O)[C@H](O)[C@H]2O)cc(O)c1C(=O)Oc1cc(C)c(C(=O)O)c(O)c1`
(A) 1.6

---

System: NFF (ATCC PCS-201) human neonatal foreskin fibroblast cells
Experimental Protocol: Cytotoxicity resazurin assay, NFF cells
Format: cell-based
Experimental Context: Homo sapiens; neonatal foreskin fibroblast NFF, 96 h; read-out: IC50 NFF
Record form. Attribute: IC50. Fill in for each entry.

(Q) Find the recorded IC50 belonging to `CCCCCCCCCCCCCCCc1cc(O)cc(O)c1C(=O)O` and report it.
(A) > 100 µg/mL

(Q) Another: `CCCCCC/C=C\CCCCCCCc1cc(O)cc(O)c1C(=O)O`
(A) > 100 µg/mL

(Q) Another: `CCCCCCCCCCCCCCCc1cc(O)cc(O)c1C(=O)OC`
(A) > 100 µg/mL

(Q) Another: `CCCCCC/C=C\CCCCCCCc1cc(O[C@@H]2O[C@H](CO)[C@H](O)[C@H](O)[C@H]2O)cc(O)c1C(=O)OC`
(A) 6.3 µg/mL

(Q) Another: `CCCCCCCCCCCCCCCc1cc(O[C@@H]2O[C@H](CO)[C@H](O)[C@H](O)[C@H]2O)cc(O)c1C(=O)O`
(A) > 100 µg/mL

(Q) Another: `CCCCCC/C=C\CCCCCCCc1cc(O)cc(O)c1C(=O)Oc1cc(C)c(C(=O)O)c(O)c1`
(A) > 100 µg/mL

(Q) Another: `CCCCCCCCCCCCCc1cc(O)cc(O)c1C(=O)Oc1cc(C)c(C(=O)O)c(O)c1`
(A) > 50 µg/mL

(Q) Another: `Cc1cc(O)cc(O)c1C(=O)O`
(A) > 100 µg/mL

(Q) Another: `CCCCCCCCCCCCCc1cc(O[C@@H]2O[C@H](CO)[C@H](O)[C@H](O)[C@H]2O)cc(O)c1C(=O)O`
(A) > 50 µg/mL

(Q) Another: `CCCCCC/C=C\CCCCCCCc1cc(O[C@@H]2O[C@H](CO)[C@H](O)[C@H](O)[C@H]2O)cc(O)c1C(=O)Oc1cc(C)c(C(=O)O)c(O)c1`
(A) > 100 µg/mL

---

Tested on: MRSA (ATCC 33592)
Experimental Protocol: Antibacterial ProTOX bioassay, MRSA
Type: cell-based, methicillin-resistant S. aureus
Experimental Context: Staphylococcus aureus; MRSA ATCC 33592, 48 h, 28 °C; read-out: Minimum inhibitory concentration (MIC) MRSA
Assay Readout: log10 MIC (log10 of the value in µg/mL)
The figures below represent log10 of MIC, where MIC is stated in µg/mL.

(Q) Find the recorded log10 MIC belonging to `CCCCCC/C=C\CCCCCCCc1cc(O)cc(O)c1C(=O)O` and report it.
(A) 0.80

(Q) Another: `CCCCCCCCCCCCCc1cc(O)cc(O)c1C(=O)Oc1cc(C)c(C(=O)O)c(O)c1`
(A) 1.10

(Q) Another: `CCCCCCCCCCCCCCCc1cc(O[C@@H]2O[C@H](CO)[C@@H](O)[C@H](O)[C@H]2O)cc(O)c1C(=O)Oc1cc(C)c(C(=O)O)c(O)c1`
(A) 0.20

(Q) Another: `CCCCCCCCCCCCCCCc1cc(O)cc(O)c1C(=O)O`
(A) 0.49

(Q) Another: `CCCCCCCCCCCCCCCc1cc(O)cc(O)c1`
(A) 1.40

(Q) Another: `CCCCCCCCCCCCCc1cc(O[C@@H]2O[C@H](CO)[C@H](O)[C@H](O)[C@H]2O)cc(O)c1C(=O)Oc1cc(C)c(C(=O)O)c(O)c1`
(A) 0.80

(Q) Another: `CCCCCC/C=C\CCCCCCCc1cc(O)cc(O)c1C(=O)Oc1cc(C)c(C(=O)O)c(O)c1`
(A) 1.10

---

Tested on: MRSA (ATCC 33592)
Experimental Protocol: Antibacterial ProTOX bioassay, MRSA
Format: cell-based, methicillin-resistant S. aureus
Experimental Context: Staphylococcus aureus; MRSA ATCC 33592, 48 h, 28 °C; read-out: Minimum inhibitory concentration (MIC) MRSA
Record form. Attribute: MIC. Fill in for each entry.

(Q) Find the recorded MIC belonging to CC1(C)S[C@@H]2[C@H](NC(=O)[C@H](N)c3ccccc3)C(=O)N2[C@H]1C(=O)O [ampicillin, reference compound] and report it.
(A) > 100 mg/L

(Q) Another: `CCCCCC/C=C\CCCCCCCc1cc(O[C@@H]2O[C@H](CO)[C@H](O)[C@H](O)[C@H]2O)cc(O)c1C(=O)Oc1cc(C)c(C(=O)O)c(O)c1`
(A) 6.3 mg/L

(Q) Another: `Cc1cc(O)cc(O)c1C(=O)O`
(A) > 100 mg/L

(Q) Another: `CCCCCCCCCCCCCc1cc(O[C@@H]2O[C@H](CO)[C@H](O)[C@H](O)[C@H]2O)cc(O)c1C(=O)O`
(A) > 50 mg/L

(Q) Another: `CCCCCC/C=C\CCCCCCCc1cc(O[C@@H]2O[C@H](CO)[C@H](O)[C@H](O)[C@H]2O)cc(O)c1C(=O)O`
(A) > 50 mg/L

(Q) Another: `CCCCCCCCCCCCCCCc1cc(O[C@@H]2O[C@H](CO)[C@H](O)[C@H](O)[C@H]2O)cc(O)c1C(=O)O`
(A) 6.3 mg/L

(Q) Another: `CCCCCCCCCCCCCCCc1cc(O)cc(O)c1C(=O)Oc1cc(C)c(C(=O)O)c(O)c1`
(A) > 50 mg/L

---

Tested on: NS-1 (ATCC TIB-18) mouse myeloma cells
Experimental Protocol: Cytotoxicity resazurin assay, NS-1 cells
Assay type: cell-based
Experimental Context: NS1; mouse myeloma NS-1 ATCC TIB-18, 96 h; read-out: IC50 NS-1
Description: 12. Bioactivity screening. Purified metabolites were dissolved in DMSO to create stock solutions of 10,000 µg/mL. An aliquot from each stock solution was transferred to the first well of Rows B to G on a 96-well microtitre plate and then serially diluted two-fold with DMSO across the 12 wells of the plate to achieve a 2,048-fold concentration gradient. […] MIC endpoints were determined visually. Absorbance was measured using a Multiskan Skyhigh […]
Assay Readout: IC50

(Q) Find the recorded IC50 belonging to CCCCCCCCCCCCCCCc1cc(O)cc(O)c1C(=O)Oc1cc(C)c(C(=O)O)c(O)c1 [1b, Aquastatin B] and report it.
(A) > 50 µg/mL

(Q) Another: CCCCCC/C=C\CCCCCCCc1cc(O[C@@H]2O[C@H](CO)[C@H](O)[C@H](O)[C@H]2O)cc(O)c1C(=O)Oc1cc(C)c(C(=O)O)c(O)c1 [4a, Capricostatin A]
(A) > 100 µg/mL

(Q) Another: CCCCCCCCCCCCCCCc1cc(O[C@@H]2O[C@H](CO)[C@H](O)[C@H](O)[C@H]2O)cc(O)c1C(=O)OC [1c, aquastatin C]
(A) > 100 µg/mL

(Q) Another: CCCCCCCCCCCCCc1cc(O[C@@H]2O[C@H](CO)[C@H](O)[C@H](O)[C@H]2O)cc(O)c1C(=O)Oc1cc(C)c(C(=O)O)c(O)c1 [3a, Ariestatin A]
(A) > 100 µg/mL

---

Tested on: NS-1 (ATCC TIB-18) mouse myeloma cells
Experimental Protocol: Cytotoxicity resazurin assay, NS-1 cells
Format: cell-based
Experimental Context: NS1; mouse myeloma NS-1 ATCC TIB-18, 96 h; read-out: IC50 NS-1
Record form. Attribute: IC50. Fill in for each entry.

(Q) Notebook entry, NS-1 (ATCC TIB-18) mouse myeloma cells assay: IC50 of `CCCCCC/C=C\CCCCCCCc1cc(O[C@@H]2O[C@H](CO)[C@H](O)[C@H](O)[C@H]2O)cc(O)c1C(=O)O` = ?
(A) > 50 µg/mL

(Q) Another: `CCCCCCCCCCCCCCCc1cc(O)cc(O)c1C(=O)OC`
(A) > 100 µg/mL

(Q) Another: `CCCCCCCCCCCCCCCc1cc(O[C@@H]2O[C@H](CO)[C@@H](O)[C@H](O)[C@H]2O)cc(O)c1C(=O)Oc1cc(C)c(C(=O)O)c(O)c1`
(A) > 100 µg/mL

(Q) Another: `CCCCCCCCCCCCCCCc1cc(O[C@@H]2O[C@H](CO)[C@H](O)[C@H](O)[C@H]2O)cc(O)c1C(=O)O`
(A) > 50 µg/mL
